Assay comment: AT-9010 half-life in human hepatocytes (washout)
Assay type: in vitro ADME
Measurement context: both sexes, plated cryopreserved human hepatocytes, 100 μM AT-511 for 6 h, washout 30 h

Molecule: C[C@@]1(F)[C@H](O)[C@@H](COP(=O)(O)OP(=O)(O)OP(=O)(O)O)O[C@H]1n1cnc2c(=O)[nH]c(N)nc21 [AT-9010]
half-life at 100 μM: 10 h

* * *

Overview of recorded AUC(0-t) for various molecules
Assay comment: Monkey PK study, plasma
Format: in vivo, cynomolgus monkey
Measurement context: male, cynomolgus, cynomolgus monkey, in vivo, po, 100 mg/kg
Assay readout: AUC(0-t) (µM·h)

Molecule: CNc1nc(N)nc2c1ncn2[C@@H]1O[C@H](CO)[C@@H](O)[C@@]1(C)F [M4]
Test result: 39.2
--
Molecule: CNc1nc(N)nc2c1ncn2[C@@H]1O[C@H](CO[P@](=O)(O)N[C@@H](C)C(=O)O)[C@@H](O)[C@@]1(C)F [M1]
Test result: 25.5

* * *

Test system: HCV NS5B replicons, laboratory strains
Assay comment: PhenoSense HCV NS5B assay, laboratory strains
Format: cell-based, hepatitis C virus
Measurement context: Hepatitis C virus, GT3A, GT3a S52

Compound: CC(C)OC(=O)[C@H](C)N[P@](=O)(OC[C@H]1O[C@@H](n2ccc(=O)[nH]c2=O)[C@](C)(F)[C@@H]1O)Oc1ccccc1 [SOF, sofosbuvir]
EC50 / µM: 0.117

* * *

Assay comment: Monkey PK study, plasma
Assay type: in vivo, cynomolgus monkey
Measurement context: male, cynomolgus, cynomolgus monkey, in vivo, po, 100 mg/kg
Overview of recorded Cmax for various compounds

Compound: CNc1nc(N)nc2c1ncn2[C@@H]1O[C@H](CO)[C@@H](O)[C@@]1(C)F [M4]
Cmax / nM: 1300

Compound: CNc1nc(N)nc2c1ncn2[C@@H]1O[C@H](CO[P@](=O)(O)N[C@@H](C)C(=O)O)[C@@H](O)[C@@]1(C)F [M1]
Cmax / nM: 4240

* * *

These records show IC50 for human DNA polymerase β (Homo sapiens).
Assay readout: IC50 (nM)

Compound: C[C@H](CCC(=O)O)[C@H]1CC[C@H]2[C@@H]3CC[C@@H]4C[C@H](O)CC[C@]4(C)[C@H]3CC[C@]12C [lithocholic acid, reference compound]
Assay readout: IC50
Quantity unit: nM
Relation symbol: =
Test result: 2910

Compound: C[C@@]1(F)[C@H](O)[C@@H](COP(=O)(O)OP(=O)(O)OP(=O)(O)O)O[C@H]1n1cnc2c(=O)[nH]c(N)nc21 [AT-9010]
Assay readout: IC50
Quantity unit: nM
Relation symbol: >
Test result: 100000

* * *

Assay comment: Monkey PK study, plasma
Type: in vivo, cynomolgus monkey
Measurement context: male, cynomolgus, cynomolgus monkey, in vivo, po, 30 mg/kg
Overview of recorded AUC(0-t) for various molecules
Assay readout: AUC(0-t) (µM·h)

Smiles notation: CNc1nc(N)nc2c1ncn2[C@@H]1O[C@H](CO)[C@@H](O)[C@@]1(C)F
Assay readout: AUC(0-t)
Quantity unit: µM·h
Test result: 18.2

Smiles notation: CNc1nc(N)nc2c1ncn2[C@@H]1O[C@H](CO[P@](=O)(O)N[C@@H](C)C(=O)O)[C@@H](O)[C@@]1(C)F
Assay readout: AUC(0-t)
Quantity unit: µM·h
Test result: 5.44

* * *

Assay comment: Monkey PK study, liver and heart tissue levels
Type: in vivo, cynomolgus monkey
Measurement context: monkey, AT-527 300 mg/kg oral, 4 h
Marks after values point to notes of the source that are not given here.
Overview of recorded Liver/Heart Ratio for various compounds

Smiles notation: CNc1nc(N)nc2c1ncn2[C@@H]1O[C@H](COP(=O)(O)O)[C@@H](O)[C@@]1(C)F
Liver/Heart Ratio: 13^a

Smiles notation: C[C@@]1(F)[C@H](O)[C@@H](COP(=O)(O)O)O[C@H]1n1cnc2c(=O)[nH]c(N)nc21
Liver/Heart Ratio: 72

Smiles notation: C[C@@]1(F)[C@H](O)[C@@H](CO)O[C@H]1n1cnc2c(=O)[nH]c(N)nc21
Liver/Heart Ratio: 2.1

Smiles notation: CNc1nc(N)nc2c1ncn2[C@@H]1O[C@H](CO[P@](=O)(O)N[C@@H](C)C(=O)O)[C@@H](O)[C@@]1(C)F
Liver/Heart Ratio: 5.6

* * *

Overview of recorded Cmax for various molecules
Assay comment: Monkey PK study, plasma
Assay type: in vivo, cynomolgus monkey
Measurement context: male, cynomolgus, cynomolgus monkey, in vivo, po, 300 mg/kg
Assay readout: Cmax (µM)

Smiles notation: CNc1nc(N)nc2c1ncn2[C@@H]1O[C@H](CO[P@](=O)(O)N[C@@H](C)C(=O)O)[C@@H](O)[C@@]1(C)F
Assay readout: Cmax
Quantity unit: µM
Test result: 4.44
//
Smiles notation: CNc1nc(N)nc2c1ncn2[C@@H]1O[C@H](CO)[C@@H](O)[C@@]1(C)F
Assay readout: Cmax
Quantity unit: µM
Test result: 1.66

* * *

Assay comment: Rat pharmacokinetic study, plasma
Format: in vivo, Sprague-Dawley rat
Measurement context: both sexes, Sprague-Dawley, rat, in vivo, po, 500 mg/kg
Overview of recorded MRT last for various compounds

Compound: CNc1nc(N)nc2c1ncn2[C@@H]1O[C@H](CO[P@](=O)(O)N[C@@H](C)C(=O)O)[C@@H](O)[C@@]1(C)F [M1]
MRT last, h: 2.54

Compound: CNc1nc(N)nc2c1ncn2[C@@H]1O[C@H](CO)[C@@H](O)[C@@]1(C)F [M4]
MRT last, h: 6.41

Compound: C[C@@]1(F)[C@H](O)[C@@H](CO)O[C@H]1n1cnc2c(=O)[nH]c(N)nc21 [AT-273]
MRT last, h: 17.5

* * *

System: HCV NS5B replicons, laboratory strains
Assay comment: PhenoSense HCV NS5B assay, laboratory strains
Format: cell-based, hepatitis C virus
Measurement context: Hepatitis C virus, GT5A, GT5a SA13

Molecule: CC(C)OC(=O)[C@H](C)N[P@](=O)(OC[C@H]1O[C@@H](n2ccc(=O)[nH]c2=O)[C@](C)(F)[C@@H]1O)Oc1ccccc1 [SOF, sofosbuvir]
EC50: 287 nM

* * *

Test system: HCV NS5B replicons, laboratory strains
Assay comment: PhenoSense HCV NS5B assay, laboratory strains
Type: cell-based, hepatitis C virus
Measurement context: Hepatitis C virus, GT2A, GT2a JFH-1

Smiles notation: CC(C)OC(=O)[C@H](C)N[P@](=O)(OC[C@H]1O[C@@H](n2ccc(=O)[nH]c2=O)[C@](C)(F)[C@@H]1O)Oc1ccccc1
EC50, nM: 50.7

* * *

Assay comment: Monkey PK study, liver and heart tissue levels
Assay type: in vivo, cynomolgus monkey
Measurement context: monkey, AT-527 100 mg/kg oral, 4 h
Marks after values point to notes of the source that are not given here.

Compound: C[C@@]1(F)[C@H](O)[C@@H](COP(=O)(O)O)O[C@H]1n1cnc2c(=O)[nH]c(N)nc21 [M3]
Liver/Heart Ratio: 26^a
//
Compound: C[C@@]1(F)[C@H](O)[C@@H](CO)O[C@H]1n1cnc2c(=O)[nH]c(N)nc21 [AT-273]
Liver/Heart Ratio: 2.9
//
Compound: C[C@@]1(F)[C@H](O)[C@@H](COP(=O)(O)OP(=O)(O)OP(=O)(O)O)O[C@H]1n1cnc2c(=O)[nH]c(N)nc21 [AT-9010]
Liver/Heart Ratio: 31^b
//
Compound: CNc1nc(N)nc2c1ncn2[C@@H]1O[C@H](CO[P@](=O)(O)N[C@@H](C)C(=O)O)[C@@H](O)[C@@]1(C)F [M1]
Liver/Heart Ratio: 3.6
//
Compound: CNc1nc(N)nc2c1ncn2[C@@H]1O[C@H](COP(=O)(O)O)[C@@H](O)[C@@]1(C)F [M2]
Liver/Heart Ratio: 48^a

* * *

System: HCV strains containing resistance-associated variants (RAVs)
Assay comment: PhenoSense HCV NS5B assay, resistance-associated variants
Format: cell-based, hepatitis C virus
Measurement context: Hepatitis C virus, GT1A, GT1a 2c1_L159F
pEC50: −log10 of the molar value.
Assay readout: pEC50

Compound: CC(C)OC(=O)[C@H](C)N[P@](=O)(OC[C@H]1O[C@@H](n2ccc(=O)[nH]c2=O)[C@](C)(F)[C@@H]1O)Oc1ccccc1 [SOF, sofosbuvir]
Test result: 6.94

* * *

System: HCV strains containing resistance-associated variants (RAVs)
Assay comment: PhenoSense HCV NS5B assay, resistance-associated variants
Assay type: cell-based, hepatitis C virus
Measurement context: Hepatitis C virus, GT1B, GT1b Con-1_L159F

Compound: CC(C)OC(=O)[C@H](C)N[P@](=O)(OC[C@H]1O[C@@H](n2ccc(=O)[nH]c2=O)[C@](C)(F)[C@@H]1O)Oc1ccccc1 [SOF, sofosbuvir]
Quantity unit: nM
EC50: 111

* * *

Assay comment: Monkey PK study, liver and heart tissue levels
Assay type: in vivo, cynomolgus monkey
Measurement context: monkey, AT-527 30 mg/kg oral; footnoted values extrapolated below LLOQ
Assay readout: Mean Concentration at 4 hr Postdose, Heart

Smiles notation: C[C@@]1(F)[C@H](O)[C@@H](COP(=O)(O)O)O[C@H]1n1cnc2c(=O)[nH]c(N)nc21
Test result: 7.5^a pmol/g
--
Smiles notation: C[C@@]1(F)[C@H](O)[C@@H](COP(=O)(O)OP(=O)(O)OP(=O)(O)O)O[C@H]1n1cnc2c(=O)[nH]c(N)nc21
Test result: 51.2^b pmol/g
--
Smiles notation: CNc1nc(N)nc2c1ncn2[C@@H]1O[C@H](COP(=O)(O)O)[C@@H](O)[C@@]1(C)F
Test result: 5.4^a pmol/g
--
Smiles notation: C[C@@]1(F)[C@H](O)[C@@H](CO)O[C@H]1n1cnc2c(=O)[nH]c(N)nc21
Test result: 88.5 pmol/g
